# ASSAY: Pharmacokinetic study in mouse
# Format: in vivo, ICR mice
# CONDITION SET: male, ICR, plasma, PO, 10 mg/kg, read-out: Ft (%) bioavailability (converted)
REPORTED METRIC: bioavailability (%)
One number for each entry, in %.

Given CC(C)n1cc2nc(-c3cc(F)cc(F)c3)nc(NCCc3c[nH]c4ccccc34)c2n1 [Compound 7k] , state its recorded bioavailability.
71

###

# ASSAY: Pharmacokinetic study in mouse
# Assay type: in vivo, ICR mice
# CONDITION SET: male, ICR, plasma, IV, 5 mg/kg, read-out: Vss (converted)
REPORTED METRIC: Vd (L/kg)
One number for each entry, in L/kg.

Given CC(C)n1cc2nc(-c3cc(F)cc(F)c3)nc(NCCc3c[nH]c4ccccc34)c2n1 [Compound 7k] , state its recorded Vd.
3.91

###

# System: AhR
# ASSAY: AhR antagonist screening using Tg(cyp1a:egfp) zebrafish
# Format: in vivo
# CONDITION SET: Tg(cyp1a:egfp) zebrafish, EGFP readout
REPORTED METRIC: AhR antagonistic activity in zebrafish, in words

Please state recorded AhR antagonistic activity in zebrafish, in words (tested on AhR) of CC(C)n1cc2nc(-c3cccc(OC(F)(F)F)c3)nc(NCCc3c[nH]c4ccccc34)c2n1
decreased activities

Please state recorded AhR antagonistic activity in zebrafish, in words (tested on AhR) of CC(C)n1cc2nc(-c3cccc(C(=O)OC(C)(C)C)c3)nc(NCCc3c[nH]c4ccccc34)c2n1
decreased activities

###

# System: AhR
# ASSAY: AhR antagonist screening using Tg(cyp1a:egfp) zebrafish
# Type: in vivo
# Set-up: key: - no inhibition; + weak; ++ mild; +++ moderate; ++++ high; +++++ very high
# CONDITION SET: extent of GFP reduction in Tg(cyp1a:egfp) zebrafish compared to the TCDD (2 nM) control; 100 nM; 48 h
REPORTED METRIC: AhR Antagonist Activity at 100 nM

Solved entries:
Given CC(C)n1cnc2c(NCCc3ccc(O)cc3)nc(-c3csc4ccccc34)nc21 [SR-1, StemRegenin 1, reference compound] , state its recorded AhR Antagonist Activity at 100 nM.
+++

Given CCCCn1cc2nc(-c3cccc(C#N)c3)nc(NCCc3c[nH]c4ccccc34)c2n1 [Compound 7h] , state its recorded AhR Antagonist Activity at 100 nM.
+++

Given CC(C)n1cc2nc(-c3cc(F)cc(F)c3)nc(NCCc3c[nH]c4ccccc34)c2n1 [Compound 7k] , state its recorded AhR Antagonist Activity at 100 nM.
+++++

Given CC(C)n1cc2nc(-c3cccc(C(F)(F)F)c3)nc(NCCc3c[nH]c4ccccc34)c2n1 [Compound 7e] , state its recorded AhR Antagonist Activity at 100 nM.
-

Given CC(C)n1cc2nc(-c3cccc(C#N)c3)nc(NCCc3c[nH]c4ccc(O)cc34)c2n1 [Compound 7i] , state its recorded AhR Antagonist Activity at 100 nM.
-

Each compound below has a reported value. Please supply its AhR Antagonist Activity at 100 nM.
1. CC(C)n1cc2nc(-c3cccc(F)c3)nc(NCCc3c[nH]c4ccccc34)c2n1 [Compound 7j]
2. CC(C)n1cc2nc(-c3cccc(OC(F)(F)F)c3)nc(NCCc3c[nH]c4ccccc34)c2n1 [Compound 7l]

++++
+++
